Tested on: MDR1-MDCK cell monolayers
Assay: Blood-brain-barrier (BBB) penetration potential via MDCK-MDR1 permeability assay
Conditions: A-B
OBSERVATION TYPE: MDCK-MDR1: % Recov A-B (%)
// units = %; emit number, no label

- COMPOUND: "Cc1cc(=O)c2cc(-c3ccc(N(C)[C@H]4C[C@@H]5CC[C@H]([C@H]4F)N5C)nn3)c(O)cc2o1 [Compound 100B]"
  VALUE MEASURED: 79
- COMPOUND: "CN(c1ccc(-c2cc3cnccc3cc2O)nn1)[C@@H]1C[C@H]2CC(F)(F)[C@@H](C1)N2 [Compound 126A]"
  VALUE MEASURED: 80
- COMPOUND: "Cc1nc2cc(O)c(-c3ccc(N(C)[C@H]4C[C@@H]5CC[C@@H](N5)[C@H]4F)nn3)cc2o1 [Compound 117B]"
  VALUE MEASURED: 90
- COMPOUND: "Cc1nc2cc(O)c(-c3ccc(N(C)[C@H]4C[C@@H]5CC[C@@H](N5)[C@H]4F)nn3)cc2s1 [Compound 116B]"
  VALUE MEASURED: 77
- COMPOUND: "CN(c1ccc(-c2cc3c(=O)n(C)ccc3cc2O)nn1)[C@@H]1C[C@H]2CC[C@@H]([C@@H]1F)N2C [Compound 98A]"
  VALUE MEASURED: 86

Turning to the following compound.
The measured MDCK-MDR1: % Recov A-B associated with Cc1nc2cc(-c3ccc(N(C)[C@H]4C[C@@H]5CC[C@H]([C@H]4F)N5C)nn3)c(O)cc2c(=O)n1C [Compound 105B] reads 114

----------
Tested on: MDR1 (P-gp)
Assay: Blood-brain-barrier (BBB) penetration potential via MDCK-MDR1 permeability assay
Details: dog, MDCK-MDR1, pH 7.4, MDCK-MDR1: Papp B-A, B-A
// bucketize Papp B→A at 120 min, 5 μM: lower segment: < 40 ×10⁻⁶ cm/s; middle segment: ≥ 40 ×10⁻⁶ cm/s and < 50 ×10⁻⁶ cm/s; upper segment: ≥ 50 ×10⁻⁶ cm/s

- COMPOUND: "CN(c1ccc(-c2cc3ccncc3cc2O)nn1)[C@@H]1C[C@H]2CC(F)(F)[C@@H](C1)N2 [Compound 125A]"
  CLASS: "middle segment"
- COMPOUND: "CN(c1ccc(-c2cc3ncn(C)c(=O)c3cc2O)nn1)[C@H]1C[C@@H]2CC[C@H]([C@H]1F)N2C [Compound 101B]"
  CLASS: "upper segment"
- COMPOUND: "Cc1nc2cc(-c3ccc(N(C)[C@H]4C[C@@H]5CC[C@@H](N5)[C@H]4F)nn3)c(O)cc2c(=O)n1CC(F)(F)F [Compound 113B]"
  CLASS: "upper segment"
- COMPOUND: "CN(c1ccc(-c2cc3oc(C(=O)N4CCC4)cc3cc2O)nn1)[C@H]1C[C@@H]2CC[C@@H](N2)[C@H]1F [Compound 112B]"
  CLASS: "middle segment"
- COMPOUND: "CN(c1ccc(-c2cc3oc(C(=O)N4CCC4)cc3cc2O)nn1)[C@@H]1C[C@H]2CC[C@H](N2)[C@@H]1F [Compound 112A]"
  CLASS: "middle segment"

Classify this compound: Cc1nc2cc(-c3ccc(N(C)[C@@H]4C[C@H]5CC[C@H](N5)[C@@H]4F)nn3)c(O)cc2c(=O)n1C [Compound 114A]
lower segment

Classify this compound: Cc1nc2cc(-c3ccc(N(C)[C@H]4C[C@@H]5CC[C@H]([C@H]4F)N5C)nn3)c(O)cc2c(=O)n1C [Compound 105B]
upper segment

Classify this compound: Cc1nc2cc(-c3ccc(N(C)[C@@H]4C[C@H]5CC[C@H](N5)[C@@H]4F)nn3)c(O)cc2c(=O)n1CC(F)(F)F [Compound 113A]
upper segment

Classify this compound: Cc1cc(=O)c2cc(O)c(-c3ccc(N(C)[C@H]4C[C@@H]5CC[C@H]([C@H]4F)N5C)nn3)cc2o1 [Compound 99B]
upper segment

Classify this compound: CN(c1ccc(-c2cc3cnccc3cc2O)nn1)[C@@H]1C[C@H]2CC(F)(F)[C@@H](C1)N2 [Compound 126A]
lower segment

Classify this compound: CN(c1ccc(-c2cc3c(=O)n(C)ccc3cc2O)nn1)[C@H]1C[C@@H]2CC[C@H]([C@H]1F)N2C [Compound 98B]
upper segment

Classify this compound: Cc1nc2cc(O)c(-c3ccc(N(C)[C@H]4C[C@@H]5CC[C@@H](N5)[C@H]4F)nn3)cc2s1 [Compound 116B]
middle segment

Classify this compound: CN(c1ccc(-c2cc3c(=O)n(C)cnc3cc2O)nn1)[C@H]1C[C@@H]2CC[C@H]([C@H]1F)N2C [Compound 102B]
middle segment

----------
A collection of compounds and their measured MDCK-MDR1: % Recov B-A
System: MDR1-MDCK cell monolayers
Test: Blood-brain-barrier (BBB) penetration potential via MDCK-MDR1 permeability assay
Settings: B-A direction
Lab note: write values as number then unit, every time.

Some entries whose results are on file:
- COMPOUND: "CN(c1ccc(-c2cc3cncnc3cc2O)nn1)[C@H]1C[C@@H]2CC[C@@H](N2)[C@H]1F [Compound 75B]"
  MEASUREMENT TARGET: "MDR1-MDCK cell monolayers"
  OBSERVATION TYPE: "MDCK-MDR1: % Recov B-A"
  VALUE MEASURED: "90%"
- COMPOUND: "CN(c1ccc(-c2ccc(C#N)cc2O)nn1)[C@@H]1C[C@H]2CCC[C@H](N2)[C@@H]1F [Compound 39A]"
  MEASUREMENT TARGET: "MDR1-MDCK cell monolayers"
  OBSERVATION TYPE: "MDCK-MDR1: % Recov B-A"
  VALUE MEASURED: "76%"
- COMPOUND: "CN(c1ccc(-c2cc3ncccc3cc2O)nn1)[C@@H]1C[C@H]2CC(F)(F)[C@@H](C1)N2 [Compound 46A]"
  MEASUREMENT TARGET: "MDR1-MDCK cell monolayers"
  OBSERVATION TYPE: "MDCK-MDR1: % Recov B-A"
  VALUE MEASURED: "89%"

The measured MDCK-MDR1: % Recov B-A associated with Cn1cnc2cc(-c3ccc(N(C4CC4)[C@H]4C[C@@H]5CC[C@@H](N5)[C@H]4F)nn3)c(O)cc2c1=O [Compound 56B] reads 97%

----------
A collection of compounds and their measured MDCK-MDR1: % Recov B-A
Tested on: MDR1-MDCK cell monolayers
Details: dog, MDCK-MDR1, 120 min, 5 μM, pH 7.4
// units = %; emit number, no label

Some entries whose results are on file:
- COMPOUND: "CN(c1ccc(-c2ccc(C(F)F)cc2O)nn1)[C@H]1C[C@@H]2CC[C@@H](N2)[C@H]1F (single isomer, unassigned) [Compound 120B]"
  OBSERVATION TYPE: "MDCK-MDR1: % Recov B-A"
  MEASURE UNIT: "%"
  VALUE MEASURED: 76
- COMPOUND: "CNC(=O)c1cc(O)c(-c2ccc(N(C)[C@@H]3C[C@H]4CC[C@@H]([C@@H]3F)N4C)nn2)cc1F (single isomer, unassigned) [Compound 96A]"
  OBSERVATION TYPE: "MDCK-MDR1: % Recov B-A"
  MEASURE UNIT: "%"
  VALUE MEASURED: 114
- COMPOUND: "CC(=O)Nc1ccc(-c2ccc(N(C)[C@H]3C[C@@H]4CC[C@@H](N4)[C@H]3F)nn2)c(O)c1 (single isomer, unassigned) [Compound 32B]"
  OBSERVATION TYPE: "MDCK-MDR1: % Recov B-A"
  MEASURE UNIT: "%"
  VALUE MEASURED: 95

Turning to the following compound.
The measured MDCK-MDR1: % Recov B-A associated with CN(c1ccc(-c2ccc(-n3cnc(C(=O)NC(C)(C)C)c3)cc2O)nn1)[C@@H]1C[C@H]2CC[C@H](N2)[C@@H]1F (single isomer, unassigned) [Compound 124A] reads 78

----------
Test system: MDR1-MDCK cell monolayers
Assay: Blood-brain-barrier (BBB) penetration potential via MDCK-MDR1 permeability assay
Conditions: A-B
OBSERVATION TYPE: MDCK-MDR1: % Recov A-B (%)
// units = %; emit number, no label

- COMPOUND: "Cc1nc2cc(O)c(-c3ccc(N(C)[C@@H]4C[C@H]5CC[C@H](N5)[C@@H]4F)nn3)cc2s1 [Compound 116A]"
  MEASURE UNIT: "%"
  VALUE MEASURED: 86
- COMPOUND: "CN(c1ccc(-c2cc3c(=O)n(C)ccc3cc2O)nn1)[C@H]1C[C@@H]2CC[C@H]([C@H]1F)N2C [Compound 98B]"
  MEASURE UNIT: "%"
  VALUE MEASURED: 88
- COMPOUND: "CN(c1ccc(-c2cc3cnccc3cc2O)nn1)[C@H]1C[C@@H]2CCC[C@@H](N2)[C@H]1F [Compound 121B]"
  MEASURE UNIT: "%"
  VALUE MEASURED: 83

The measured MDCK-MDR1: % Recov A-B associated with CN(c1ccc(-c2cc3oc(C(=O)N4CCC4)cc3cc2O)nn1)[C@H]1C[C@@H]2CC[C@H]([C@H]1F)N2C [Compound 107B] reads 76

The measured MDCK-MDR1: % Recov A-B associated with CN(c1ccc(-c2cc3ccncc3cc2O)nn1)[C@@H]1C[C@H]2CC(F)(F)[C@@H](C1)N2 [Compound 125A] reads 63
